Molecular target: Full-length glucokinase (beta cell isoform) (Homo sapiens, UniProt P35557)
Construct: Full-length glucokinase (beta cell isoform) was His-tagged at N-terminus; His tag (N); made in house
Sequence (P35557 1-465): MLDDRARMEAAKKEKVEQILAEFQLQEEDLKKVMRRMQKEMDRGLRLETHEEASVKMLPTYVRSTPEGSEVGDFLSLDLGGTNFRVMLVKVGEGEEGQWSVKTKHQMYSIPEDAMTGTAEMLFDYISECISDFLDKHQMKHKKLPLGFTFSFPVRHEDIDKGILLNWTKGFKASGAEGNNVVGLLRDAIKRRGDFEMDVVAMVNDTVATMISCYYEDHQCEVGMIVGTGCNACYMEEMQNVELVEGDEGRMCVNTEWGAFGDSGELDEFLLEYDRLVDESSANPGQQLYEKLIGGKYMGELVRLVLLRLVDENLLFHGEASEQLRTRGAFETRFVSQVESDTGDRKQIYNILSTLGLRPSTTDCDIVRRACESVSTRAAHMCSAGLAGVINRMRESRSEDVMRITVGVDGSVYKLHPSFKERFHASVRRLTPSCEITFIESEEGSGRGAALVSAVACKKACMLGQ
Assay: Glucokinase biochemical assay (PK/LDH-coupled, NADH depletion at 340 nm): % activation, EC50, % max activation
Conditions: 5 mM glucose; fitted maximum activation; read-out: % Max Activation
endpoint label: Emax (%)

molecule	measurement units	meas value
CN(C)S(=O)(=O)c1ccc(Oc2cc(C(=O)Nc3ccn(C)n3)cc3c2CC(C)(C)O3)cc1	%	159

(I) CCS(=O)(=O)c1ccc(Oc2cc(C(=O)Nc3ccn(C)n3)cc3c2CC(C)(C)O3)cc1F
(II) Cc1ccc(NC(=O)c2cc(Oc3ccc(S(C)(=O)=O)cc3)c3cc(C(F)F)oc3c2)nc1
(III) COCc1cc2c(Oc3ccc(S(C)(=O)=O)cc3)cc(C(=O)Nc3ccc(C)cn3)cc2o1
(Q) Task field, ranking: reported Emax, descending order. Your task in answering is to list the labels in the requested order.
(A) I, II, III
(I: 236%, II: 132%, III: 81%)

(P) CN(C)S(=O)(=O)c1cc(F)c(Oc2cc(C(=O)Nc3cnn(C)n3)cc3c2CC(C)(C)O3)cc1F
(Q) Cc1ccnc(C(C)Oc2cc(C(=O)Nc3ccn(C)n3)cc3c2CC(C)(C)O3)c1 (centres unmarked)
(Q) Look at P and Q . Which one has the lower recorded Emax number? Write down the label attached to your selection.
(A) Q
(Q: 136%, P: 224%)

(1) Cn1ncc(NC(=O)c2cc(Oc3ccc(-c4ncon4)cc3)c3c(c2)OC(C)(C)C3)n1
(2) Cn1ccc(NC(=O)c2cc(Oc3ccc(C(=O)N4CC(O)C4)c(F)c3)c3c(c2)OC(C)(C)C3)n1
(Q) Param pair: 1 , 2 . Output: the one whose Emax is numerically greater. Write down the label attached to your selection.
(A) 1
(1: 230%, 2: 129%)

* * *

biological target: Full-length glucokinase (beta cell isoform) (Homo sapiens); construct: Full-length glucokinase (beta cell isoform) was His-tagged at N-terminus; His tag (N); made in house; experiment: Glucokinase biochemical assay (PK/LDH-coupled, NADH depletion at 340 nm): % activation, EC50, % max activation; details: 5 mM glucose; GK activation; read-out: EC50
pEC50: −log10 of the molar value.
endpoint label: pEC50

Answered cases to consult:
compound	pEC50
Cn1ncc(NC(=O)c2cc(Oc3ccc(C(=O)N4CCC4)nc3)c3c(c2)OC(C)(C)C3)n1 [Example 169]	7.25
Cn1ccc(NC(=O)c2cc(Oc3ccc(C(=O)N4CC(F)(F)C4)cc3)c3c(c2)OC(C)(C)C3)n1 [Example 50]	6.25
COCC1(C)Cc2c(Oc3ccc(S(=O)(=O)C4CC4)cc3)cc(C(=O)Nc3ccn(C)n3)cc2O1 (single isomer, unassigned; (-)) [Example 247]	7.08
CN(C)C(=O)c1ccc(Oc2cc(C(=O)Nc3ccn(C)n3)cc3c2CC(C)(C)O3)cn1 [Example 161]	6.76
Cn1ccc(NC(=O)c2cc(Oc3ccc(S(C)(=O)=O)cc3)c3c(c2)OC(CO)C3)n1 (stereo not shown) [Example 200]	5.54

(I) CCCc1noc(COc2cc(C(=O)Nc3ccn(C)n3)cc3c2CC(C)(C)O3)n1 [Example 100]
(II) Cc1ccc(C(=O)COc2cc(C(=O)Nc3ccn(C)n3)cc3c2CC(C)(C)O3)cn1 [Example 103]
(III) Cn1ccc(NC(=O)c2cc(Oc3ccc(C(=O)NCC(F)F)c(F)c3)c3c(c2)OC(C)(C)C3)n1 [Example 76]
(IV) Cn1ccc(NC(=O)c2cc(Oc3ccc(S(C)(=O)=O)c(F)c3)c3c(c2)OC(C)(C)C3)n1 [Example 114]
(Q) Write the entries in order, lowest recorded pEC50 first. Your task in answering is to list the labels in the requested order.
(A) II, I, III, IV
(II: 5.33, I: 5.80, III: 6.33, IV: 6.69)

(a) Cc1ccc(NC(=O)c2cc(Oc3ccc(S(C)(=O)=O)cc3)c3cc(CN(C)C)oc3c2)nc1 [Example 319]
(b) COCC1Cc2c(Oc3ccc(C(=O)N(C)C)c(F)c3)cc(C(=O)Nc3ccn(C)n3)cc2O1 (stereo not shown) [Example 205]
(Q) Look at a and b . Which one has the lower recorded pEC50 number? Write down the label attached to your selection.
(A) a

* * *

biological target: Full-length glucokinase (beta cell isoform) (Homo sapiens, UniProt P35557); construct: Full-length glucokinase (beta cell isoform) was His-tagged at N-terminus; His tag (N); made in house; assay: Glucokinase biochemical assay (PK/LDH-coupled, NADH depletion at 340 nm): % activation, EC50, % max activation; conditions: 5 mM glucose; fitted maximum activation; read-out: % Max Activation
endpoint label: Emax (%)

molecule	Emax / %
Cc1ccc(NC(=O)c2cc(Oc3cc(F)ccc3S(C)(=O)=O)c3c(c2)OC(C)(CO)C3)nc1 (stereo not shown)	66
Cc1cc(NC(=O)c2cc(Oc3ccc(C(=O)N(C)C)c(F)c3)c3c(c2)OC(C)(C)C3)no1	50

(A) CN(C)C(=O)c1ccc(Oc2cc(C(=O)Nc3ccon3)cc3c2CC(C)(C)O3)cc1
(B) Cn1ccc(NC(=O)c2cc(Oc3ccc(S(C)(=O)=O)c(F)c3)c3c(c2)OC(C)(C)C3)n1
(Q) Param pair: A , B . Output: the one whose Emax is numerically greater. Write down the label attached to your selection.
(A) B

(a) CCNC(=O)c1ccc(Oc2cc(C(=O)Nc3ccn(C)n3)cc3c2CC(C)(C)O3)cc1F
(b) CN(C)S(=O)(=O)c1ccc(Oc2cc(C(=O)Nc3cnn(C)n3)cc3c2CC(C)(C)O3)cc1F
(Q) Look at a and b . Which one has the lower recorded Emax number? Write down the label attached to your selection.
(A) a
(a: 118%, b: 280%)

(P) Cn1ccc(NC(=O)c2cc(Oc3ccc(S(=O)(=O)C4CC4)cc3)c3c(c2)OC(C)(C)C3)n1
(Q) Cn1ncc(NC(=O)c2cc(Oc3ccc(S(C)(=O)=O)c(F)c3)c3c(c2)OC(C)(C)C3)n1
(Q) Look at P and Q . Which one has the lower recorded Emax number? Write down the label attached to your selection.
(A) P

* * *

Molecular target: Full-length glucokinase (beta cell isoform) (Homo sapiens, UniProt P35557)
Construct: Full-length glucokinase (beta cell isoform) was His-tagged at N-terminus; His tag (N); made in house
Sequence (P35557 1-465): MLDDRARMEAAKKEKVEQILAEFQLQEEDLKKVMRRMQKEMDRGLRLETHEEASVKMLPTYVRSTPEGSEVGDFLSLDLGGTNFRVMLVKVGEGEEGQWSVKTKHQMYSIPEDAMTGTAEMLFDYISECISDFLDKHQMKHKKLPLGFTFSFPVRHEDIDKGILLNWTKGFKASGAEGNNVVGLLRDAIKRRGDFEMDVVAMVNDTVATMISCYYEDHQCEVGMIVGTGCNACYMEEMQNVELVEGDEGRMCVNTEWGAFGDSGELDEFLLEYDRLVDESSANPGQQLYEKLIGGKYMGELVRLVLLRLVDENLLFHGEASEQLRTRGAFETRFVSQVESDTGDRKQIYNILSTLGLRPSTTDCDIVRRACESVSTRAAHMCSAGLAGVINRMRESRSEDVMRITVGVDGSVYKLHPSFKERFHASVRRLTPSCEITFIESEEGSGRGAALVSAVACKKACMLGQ
Test: Glucokinase biochemical assay (PK/LDH-coupled, NADH depletion at 340 nm): % activation, EC50, % max activation
Conditions: 5 mM glucose; GK activation; read-out: EC50
pEC50: −log10 of the molar value.
endpoint label: pEC50

Answered cases to consult:
compound	pEC50
CN(C)C1CN(C(=O)c2ccc(Oc3cc(C(=O)Nc4ccn(C)n4)cc4c3CC(C)(C)O4)cc2F)C1	6.19
CCOc1ccc(NC(=O)c2cc(Oc3ccc(S(=O)(=O)N4CCC4)cc3)c3cc(C)oc3c2)nc1	5.89
Cn1ccc(NC(=O)c2cc(Oc3ccc(S(C)(=O)=O)c(Cl)c3)c3c(c2)OC(C)(C)C3)n1	6.26
Cc1nc(COc2cc(C(=O)Nc3ccn(C)n3)cc3c2CC(C)(C)O3)no1	5.14
Cn1ncc(NC(=O)c2cc(Oc3ccc(-c4ncon4)cc3)c3c(c2)OC(C)(C)C3)n1	6.21
Cc1cc2c(Oc3ccc(S(C)(=O)=O)cc3)cc(C(=O)Nc3cccc(C(C)O)n3)cc2o1 (stereo not drawn)	5.15

(A) CCNC(=O)c1ccc(Oc2cc(C(=O)Nc3cnn(C)n3)cc3c2CC(C)(C)O3)cn1
(B) Cc1ccc(NC(=O)c2cc(Oc3ccc(S(C)(=O)=O)cc3)c3occc3c2)nc1
(C) Cc1ccc(NC(=O)c2cc(Oc3ccc(S(C)(=O)=O)cc3)c3cc(C(F)F)oc3c2)nc1
(Q) Write the entries in order, lowest recorded pEC50 first. Your task in answering is to list the labels in the requested order.
(A) B, C, A
(B: 5.07, C: 5.37, A: 6.08)
